test system: Rattus norvegicus; assay: Oral dose necessary to produce an excretion of 2 mequiv of Na+/kg in the rat urine in the 4-h period after peroral administration; assay type: ADME, organism-based; conditions: in vivo
MEASUREMENT_TYPE: ED2 (mg/kg)
Answers are plain numbers, in mg/kg.

These solved cases illustrate the format of a correct answer.
{"RECORD_SMILES": "CCOC(=O)COc1ccc(C(=O)c2ccc(O)c(CN)c2)c(Cl)c1.Cl", "ED2 / mg/kg": 5}
{"RECORD_SMILES": "CCOC(=O)COc1ccc(C(=O)c2ccc(O)c(CN)c2)cc1.Cl", "ED2 / mg/kg": 10}
{"RECORD_SMILES": "CCOC(=O)COc1ccc(C(=O)c2ccc(O)c(CN=C(N)N)c2)c(Cl)c1Cl", "ED2 / mg/kg": 34}

Give me ED2 for each of these molecules, listed below.
1. CCOC(=O)COc1ccc(C(=O)c2cc(CN)c(O)c(CN)c2)c(Cl)c1Cl.Cl
2. CCOC(=O)COc1ccc(C(=O)c2ccc(O)c(CN)c2)cc1Cl.Cl
3. CCOC(=O)COc1ccc(C(=O)c2ccc(O)c(CN(C)C)c2)c(Cl)c1Cl.Cl
4. CCOC(=O)COc1ccc(C(=O)c2cc(CN)ccc2O)c(Cl)c1Cl.Cl
5. CCOC(=O)COc1ccc(C(=O)c2cc(C)c(O)c(CN)c2)c(Cl)c1Cl.Cl

1. 11
2. 5
3. 16
4. 3
5. 1
